Where these numbers come from: paper PMC12399242

Assay: PK study in SD rats
Format: in vivo
Conditions: male, Sprague-Dawley, plasma, po; SD rat, 10.0 mg/kg p.o.; read-out: MRT0–∞
Value Type: MRT inf (h)
// note: answer is a bare numeric in h

I have this molecule here, `Cc1cc(-c2ccc(C#N)cc2)cc(C)c1Nc1nc(Nc2ccc(C#N)cc2)ncc1F` , and I need its recorded MRT inf.
13.5

---

Assay: PK study in SD rats
Type: in vivo
Conditions: male, Sprague-Dawley, plasma, po; SD rat, 10.0 mg/kg p.o.; mean ± SD, n = 3
Value Type: half-life (h)
Respond with the bare value in h.

Look up half-life: Cc1cc(-c2ccc(C#N)cc2)cc(C)c1Nc1nc(Nc2ccc(C#N)cc2)ncc1F [A12]
13.6
